SYSTEM TESTED: human recombinant HDAC6 (Homo sapiens)
Construct: purchased Calbiochem 382180
Sequence (Q9UBN7 whole entry): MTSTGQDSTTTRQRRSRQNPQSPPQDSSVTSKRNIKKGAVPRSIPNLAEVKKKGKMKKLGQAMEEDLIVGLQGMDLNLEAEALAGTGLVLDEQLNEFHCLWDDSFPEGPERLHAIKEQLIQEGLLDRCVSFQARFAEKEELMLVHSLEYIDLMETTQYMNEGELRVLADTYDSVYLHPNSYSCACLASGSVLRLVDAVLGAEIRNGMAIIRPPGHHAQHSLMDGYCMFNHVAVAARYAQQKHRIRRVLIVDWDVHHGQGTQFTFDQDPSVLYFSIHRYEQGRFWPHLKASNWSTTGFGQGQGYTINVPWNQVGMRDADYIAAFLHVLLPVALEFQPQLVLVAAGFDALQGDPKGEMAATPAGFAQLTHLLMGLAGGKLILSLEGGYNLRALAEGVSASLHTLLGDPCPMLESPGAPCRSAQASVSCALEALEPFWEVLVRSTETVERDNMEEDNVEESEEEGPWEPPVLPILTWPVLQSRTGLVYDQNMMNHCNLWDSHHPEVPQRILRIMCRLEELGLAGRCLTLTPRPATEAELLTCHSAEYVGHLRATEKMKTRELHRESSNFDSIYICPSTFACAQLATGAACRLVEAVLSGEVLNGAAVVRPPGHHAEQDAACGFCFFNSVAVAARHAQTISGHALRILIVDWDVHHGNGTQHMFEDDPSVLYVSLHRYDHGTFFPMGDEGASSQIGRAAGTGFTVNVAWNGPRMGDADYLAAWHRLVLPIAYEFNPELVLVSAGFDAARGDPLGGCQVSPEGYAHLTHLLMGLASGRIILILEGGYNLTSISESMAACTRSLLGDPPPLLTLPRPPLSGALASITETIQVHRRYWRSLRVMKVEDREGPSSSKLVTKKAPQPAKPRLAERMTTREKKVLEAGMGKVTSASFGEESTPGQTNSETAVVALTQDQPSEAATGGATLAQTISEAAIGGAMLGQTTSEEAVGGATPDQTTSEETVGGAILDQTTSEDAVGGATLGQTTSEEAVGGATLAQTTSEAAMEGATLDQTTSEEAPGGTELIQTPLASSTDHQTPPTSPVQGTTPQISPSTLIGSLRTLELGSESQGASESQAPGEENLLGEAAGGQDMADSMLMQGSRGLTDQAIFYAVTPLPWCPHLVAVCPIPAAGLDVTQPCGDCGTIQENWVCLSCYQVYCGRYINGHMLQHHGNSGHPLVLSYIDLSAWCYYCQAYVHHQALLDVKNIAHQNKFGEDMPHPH
TEST SUMMARY: HDAC6 enzyme activity inhibition assay (in vitro, fluorimetric)
Assay type: biochemical
MEASUREMENT SETUP: HDAC6 selectivity over HDAC1
I'd appreciate it if you could supply HDAC6 selectivity (fold) values for the items below.
Answers are plain numbers, in fold.

- C[C@@H]1CN(Cc2cccc(CN3CCCC3)c2)C[C@H](C)N1Cc1ccc(/C=C/C(=O)NO)cc1: 7

Here are 2 molecules. What values of HDAC6 selectivity (fold) were reported for them?
1. CCN(CC)CC(C)NCc1cccc(C(=O)N2[C@H](C)CN(Cc3ccc(C(=O)NO)cc3)C[C@@H]2C)c1 (stereo partly drawn)
2. C[C@@H]1CN(Cc2ccc(C(=O)NO)cc2)C[C@H](C)N1Cc1ccncc1

Result:
1: 71; 2: 68

Here are 8 molecules. What values of HDAC6 selectivity (fold) were reported for them?
1. C[C@@H]1CN(Cc2ccc(C(=O)NO)cc2)C[C@H](C)N1C(=O)c1ccccc1-c1ccoc1
2. CCCN1[C@H](C)CN(Cc2ccc(C(=O)NO)cc2)C[C@@H]1C
3. C[C@@H]1CN(Cc2ccc(C(=O)NO)cc2)C[C@H](C)N1Cc1ccccc1C1=CCC(C)(C)CC1
4. C[C@@H]1CN(Cc2ccc(C(=O)NO)cc2)C[C@H](C)N1C(=O)c1cc[nH]n1
5. C[C@@H]1CN(Cc2ccc(C(=O)NO)cc2)C[C@H](C)N1C(=O)c1ccc(-c2ccco2)cc1
6. C[C@@H]1CN(C(=O)c2cccs2)C[C@H](C)N1Cc1ccc(C(=O)NO)cc1
7. C[C@@H]1CN(C(=O)Nc2ccc3c(ccn3C)c2)C[C@H](C)N1Cc1ccc(C(=O)NO)cc1
8. C[C@@H]1CN(Cc2ccc(C(=O)NO)cc2)C[C@H](C)N1Cc1ccc(CN2CCN(C)CC2)cc1

Result:
1. 84
2. 132
3. 13
4. 53
5. 3
6. 13
7. 3
8. 690

Here are 7 molecules. What values of HDAC6 selectivity (fold) were reported for them?
1. C[C@@H]1CN(Cc2ccc(C(=O)NO)cc2)C[C@H](C)N1Cc1ccc(CN2CC[C@@H](F)C2)cc1
2. C[C@@H]1CN(Cc2ccc(C(=O)NO)cc2)C[C@H](C)N1Cc1cccc(CN2CCOCC2)c1
3. Cc1ccc(C(=O)N2[C@H](C)CN(Cc3ccc(C(=O)NO)cc3)C[C@@H]2C)cc1
4. C[C@@H]1CN(Cc2ccccc2-c2ccoc2)C[C@H](C)N1Cc1ccc(C(=O)NO)cc1
5. C[C@@H]1CN(Cc2cccc(C(F)(F)F)c2)C[C@H](C)N1Cc1ccc(C(=O)NO)cc1
6. C[C@@H]1CN(Cc2ccccc2C2=CCOCC2)C[C@H](C)N1Cc1ccc(C(=O)NO)cc1
7. C[C@@H]1CN(Cc2ccc(C(=O)NO)cc2)C[C@H](C)N1C(=O)c1cccc(CN2CCN(CC(F)(F)F)CC2)c1

Result:
1: 538; 2: 558; 3: 48; 4: 6; 5: 15; 6: 15; 7: 68

Here are 6 molecules. What values of HDAC6 selectivity (fold) were reported for them?
1. CC(C)N1CCN(Cc2cccc(C(=O)N3[C@H](C)CN(Cc4ccc(C(=O)NO)cc4)C[C@@H]3C)c2)CC1
2. C[C@@H]1CN(Cc2ccccc2)C[C@H](C)N1Cc1ccc(C(=O)NO)cn1
3. C[C@@H]1CN(C(=O)c2ccc(Cl)cc2)C[C@H](C)N1Cc1ccc(C(=O)NO)cc1
4. C[C@@H]1CN(C(=O)c2ccco2)C[C@H](C)N1Cc1ccc(C(=O)NO)cc1
5. CC(C)N1CCN(Cc2cccc(CN3[C@H](C)CN(Cc4ccc(C(=O)NO)cc4)C[C@@H]3C)c2)CC1
6. C[C@@H]1CN(Cc2ccc(C(=O)NO)cc2)C[C@H](C)N1C(=O)c1ccccc1Cl

Result:
1: 61; 2: 55; 3: 61; 4: 18; 5: 55; 6: 304

Problem: For the molecule `Cc1cccc(NC(=O)N2C[C@@H](C)N(Cc3ccc(C(=O)NO)cc3)[C@@H](C)C2)c1` , what HDAC6 selectivity (fold) is on record?
Result: 10
